Target: RBP4 (Homo sapiens (Human), UniProt P02753)
Experiment: Scintillation proximity (SPA) RBP4 binding assay
Settings: 10 nM 3H-Retinol, 50 nM biotinylated RBP4
Protocol: Scintillation Proximity RBP4 Binding Assay Untagged human RBP4 purified from urine of tubular proteinuria patients was purchased from Fitzgerald Industries International. It was biotinylated using the EZ-Link Sulfo-NHS-LC-Biotinylation kit from Pierce following the manufacturer's recommendations. […] Nonspecific binding was determined in the presence of 20 μM of unlabeled retinol. […] Radiocounts were measured using a TopCount NXT counter (Packard Instrument Company).
Where a name gives a salt, the structure may show the parent alone.
Binarize IC50 at 20 nM; below is t, at or above is f.

Input line: Confirm or reject: IC50 of O=C(c1n[nH]c2c1CN(CCC(F)(F)F)C2)N1CCC(c2ccc(F)c(F)c2C(F)(F)F)CC1 [Compound 108] lies strictly below 20 nM
Output line: f

Input line: A record lists COC(=O)N1CCc2[nH]nc(C(=O)N3CCC(c4ccc(F)c(F)c4C(F)(F)F)CC3)c2C1 [Compound 91] . Is its IC50 below 20 nM?
Output line: t

Input line: Lab log: compare recorded IC50 with 20 nM; is it strictly lower for CCN1CCc2[nH]nc(C(=O)N3CCC(c4cccc(F)c4Cl)CC3)c2C1 [Compound 163] ?
Output line: t

Input line: # TODO verify IC50 < 20 nM strictly for this molecule: N#Cc1ccc2nnc(C(=O)N3CCC(c4cc(F)ccc4Cl)CC3)n2c1 [Compound 145]
Output line: t

Input line: In plain terms, does COC(=O)N1Cc2[nH]nc(C(=O)N3CCC(c4ccc(F)c(F)c4C(F)(F)F)CC3)c2C1 [Compound 101] come in under 20 nM for IC50?
Output line: t

Input line: Below 20 nM on IC50? Entry O=C(c1n[nH]c2c1CNC2)N1CCC(c2ccc(F)c(F)c2C(F)(F)F)CC1 [Compound 38, Hydrochloride]
Output line: f

Input line: Hello, I'm reviewing records and need to know if IC50 of CC(=O)N1CCc2c(C(=O)N3CCC(c4cccc(F)c4C(F)(F)F)CC3)n[nH]c2C1 [Compound 63] is below 20 nM. Could you check?
Output line: t

Input line: Here's an entry: O=C(c1n[nH]c2c1CNCC2)N1CCC(c2ccc(F)c(F)c2C(F)(F)F)CC1 [Compound 36, Trifluoroacetic Acid Salt] . Is its IC50 below 20 nM?
Output line: t

Input line: Hello, I'm reviewing records and need to know if IC50 of CS(=O)(=O)N1CCc2[nH]nc(C(=O)N3CCC(c4cccc(F)c4Cl)CC3)c2C1 [Compound 151] is below 20 nM. Could you check?
Output line: t

Input line: # strict comparison: is reported IC50 < 20 nM? input = O=C(c1n[nH]c2c1CCN(C1COC1)C2)N1CCC(c2ccc(F)c(F)c2C(F)(F)F)CC1 [Compound 117]
Output line: t

Input line: For this molecule, is IC50 lower than 20 nM? CC(C)(C)CN1CCc2c(C(=O)N3CCC(c4ccc(F)c(F)c4C(F)(F)F)CC3)n[nH]c2C1 [Compound 126]
Output line: t

Input line: Does the reported IC50 of CC(C)C(=O)N1Cc2[nH]nc(C(=O)N3CCC(c4ccc(F)c(F)c4C(F)(F)F)CC3)c2C1 [Compound 85] stay below 20 nM?
Output line: t
